# System: emLYPLA1
# procedure_text: LYPLA1 and LYPLA2 inhibitors, biochemical, gel-based ABPP, fluorescence, recombinant and endogenous enzyme (AID 493105)
# test_context: fluorescent probe labeling, membrane fraction, at 20 µM
Activity calls are given as the source filed them. No rule for the calls is given here.
Parameter call: string, one of TRUE (active), FALSE (inactive)

compound	class_label
O=C(CCCc1ccccc1)N1CCN(c2ccc([N+](=O)[O-])cc2)CC1	FALSE
O=C(CN1CCN(C(=O)c2ccccc2)CC1)Nc1cc(S(=O)(=O)N2CCCC2)ccc1Cl	FALSE
O=C(CN1CCN(C(=O)c2ccco2)CC1)Nc1cc(Cl)ccc1Cl	TRUE
Cc1ccc(OCC(=O)N2CCN(C(=O)CCC3CCCC3)CC2)cc1	FALSE
CCOc1cc(CN2CCCC(C(=O)c3cccc(C(F)(F)F)c3)C2)ccc1O (stereo not given)	FALSE
O=C(O)c1ccc2c(c1)C(=O)N(CCCCCCCN1C(=O)c3ccc(C(=O)O)cc3C1=O)C2=O	FALSE
Cc1[nH]c2ccccc2c1C(=O)CN1CCN(C/C=C/c2ccccc2)CC1	FALSE
CC(=O)N1CCC2(CC1)C/C(=N\NC(=S)Nc1ccccc1C)c1cc(O)ccc1O2	FALSE

stdin: Per the assay record, what outcome was assigned to "COc1ccc(-n2nc(C(=O)NCC(=O)N3CCN(Cc4ccccc4)CC3)c3ccccc3c2=O)c(OC)c1" ?
stdout: FALSE

stdin: Per the assay record, what outcome was assigned to CC1CN(Cc2cc(=O)oc3cc(O)c(Cl)cc23)CC(C)O1 (stereo not given) ?
stdout: FALSE

stdin: Per the assay record, what outcome was assigned to COc1ccc(OC)c(NC(=O)C2CCC(CNc3c(N4CCC(C)CC4)c(=O)c3=O)CC2)c1 (stereo not given) ?
stdout: FALSE

stdin: Per the assay record, what outcome was assigned to "O=[N+]([O-])c1cccc(/C=N/N2CCN(Cc3ccc(Cl)cc3)CC2)c1" ?
stdout: FALSE

stdin: Per the assay record, what outcome was assigned to "C/C(=C\c1ccccc1)CN1CCN(c2cccc(Cl)c2)CC1" ?
stdout: FALSE
